Can you tell me growth for the items I'm about to list?
- Test system: SK-MEL-28 melanoma
- assay-comment: NCI-60 one-dose screen, 48 h (100 = growth as untreated, 0 = no growth, -100 = all killed)
- setup-conditions: 10 µM unless noted
Compounds without any hit were thinned out: in the full panel of roughly 83,000, 20% have a hit. Activity calls are given as the source filed them. Rule for the calls: active = growth percent below 10; inactive = the rest.

Endpoint output: growth of "Cc1ccc(S(=O)(=O)NCCCNc2cc(-c3cn(C(C)(C)C)nc3-c3cccc(O)c3)ccn2)cc1" . Value? 60.6% (inactive)

For "O=C(Nc1cccc(-n2cc(-c3ccncc3)c(-c3ccc(Cl)c(O)c3)n2)c1)Nc1ccc(Cl)c(Cl)c1" then? 24.6% (inactive)

For "O=C1CCCCC1(c1ccccc1)c1ccccc1" then? 95.6% (inactive)

For "O=C(NNC(=O)N1c2ccccc2C=Cc2ccccc21)c1ccc2ccccc2c1" then? 98.4% (inactive)

For "Cn1c(=O)cc(NC(=O)CN2CCN(c3cc4c(cc3F)c(=O)c(C(=O)O)cn4C3CC3)CC2)[nH]c1=O" then? 107% (inactive)
